- Test system: Chordin-like protein 2 (CHRDL2)
- ASSAY_COMMENT: CHRDL2 small-molecule binders, primary screen, biochemical, small-molecule microarray, 635 nm fluorescence (AID 1126);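 further: printed compound slides probed with Chrdl2 protein at 4 µg/mL for 1 h at 4 C; score merges 667 nm emission intensity with signal to noise over three replicate slides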
- PROTOCOL_CONDITIONS: small-molecule microarray binding, fluorescence 635 nm; higher = more signal
Think of 0.4 as a floor: if composite z-score stands on it or above, it is yes; beneath it, no.

Solved entries (count: 10):
CN1C2C=C(CCCO)C(C3C(=O)N(C(N)=O)C(=O)C32)C1c1ccc(CN2CCCC2)cc1 (centres undefined)    no
CN(C)CCCCCCNC(=O)[C@@H]1C[C@@H]2C(=O)N[C@@H](CCCCN)C(=O)N2[C@@H]1c1cccc(OCCO)c1    yes
CCOC(=O)C1=CCC(c2ccccc2)N(S(=O)(=O)CC[Si](C)(C)C)C1 (centres undefined)    no
C=CCNC(=O)[C@H]1[C@@H]2C(=O)O[C@@H](c3ccccc3)[C@@H](c3ccccc3)N2[C@@H](c2ccc(O)cc2)[C@]12C(=O)N(C(=O)OCCOC)c1ccc(C#CCNC(N)=O)cc12    yes
COc1ccc([Si](C)(C)[C@@H]2[C@@H](CCO)O[C@]3(C(=O)N(Cc4ccc(N5C(=O)COc6ccccc65)cc4)c4ccccc43)[C@H]2C)cc1    no
COc1cc2c(cc1OC)CN(C(=O)[C@@H]1[C@H]3C(=O)O[C@H](c4ccccc4)[C@H](c4ccccc4)N3[C@H](c3ccc(O)cc3)[C@@]13C(=O)Nc1ccc(C#CC4(O)CCCCCC4)cc13)CC2    yes
CC(C)(C)OC(=O)CC[C@]1(C(=O)NCC(O)CO)COC(c2ccc(OCCCO)cc2)=N1 (some centres undefined)    no
CC(=O)n1cc(C(O)C2C=CC3C(=O)N(C)C(=O)C3N2Nc2ccccc2)c2ccccc21 (centres undefined)    yes
O=C(O)[C@@]1(CCS(=O)(=O)c2ccccc2)COC(c2ccc(OCCCO)cc2)=N1    no
CCc1oc(CC[C@@H](CO)NC(=O)NCCn2cc(C3(O)CCCCC3)nn2)c(C(=O)OC)c1C(=O)OC    yes

Check this compound for composite z-score at or above 0.4: C#CCN(CC=C(C)C)[C@H](CO)c1ccccc1
no

Does the compound COCCCN1C(=O)[C@@]2(c3ccc([N+](=O)[O-])cc3)CC(=O)N(C3CCCCC3)[C@@H]2c2ccc(CO)cc21 have recorded composite z-score that is 0.4 or more?
yes

Hello, I need to know if C=CCC(OC(C)=O)[C@@H]1[C@@H](N(Cc2ccc(-c3ccccc3)cc2)C(=O)Cc2ccc(F)cc2)c2cc(OCCCO)ccc2N1C(=O)c1ccc(-c2ccccc2)cc1 (some centres undefined) has measured composite z-score not below 0.4. Thanks!
yes

Given CC[C@@H]1C=C(C(=O)O)[C@H](c2ccco2)N1S(=O)(=O)c1ccc(C)cc1 , state whether its composite z-score is at least 0.4.
no

----------
- ASSAY_COMMENT: small-molecule microarray binders of probe aLefty2, primary screen, biochemical, biotinylated probe, 635/667 nm fluorescence (AID 1094);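 further: score merges spot fluorescence near 667 nm with spot signal-to-noise ratio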
- PROTOCOL_CONDITIONS: higher = more signal
Field: composite z-score. Provide a value for each of the molecules that follow.
Numbers only.

Look over these answered cases.
Cc1ccc(S[C@]2(C(=O)NCCN3CCOCC3)CC(=O)N(Cc3ccccc3)[C@@H]2c2ccc(CO)cc2I)cc1    0.0769
CC[C@@H]1C=C(C(=O)O)[C@H](c2ccco2)N1S(=O)(=O)c1ccc(C)cc1    -0.0644
CCCCCN1CC=CC23O[C@@H]4/C=C\CCCOC(=O)C4[C@H]2C(=O)N(CCCO)[C@@H]3C1=O (some centres not stated)    -0.135

Could you tell me composite z-score for each of these molecules? They are listed below.
1. COCCOC(=O)N1C(=O)[C@@]2(c3cc(C#CCCO)ccc31)[C@H](C(=O)Nc1nc3ccccc3s1)[C@H]1C(=O)O[C@H](c3ccccc3)[C@H](c3ccccc3)N1[C@@H]2c1ccc(OCCO)cc1
2. CCCCC=C[C@@H](NC(=O)Oc1cccc(C(F)(F)F)c1)c1ccccc1
3. COc1ccc(CCN2C(=O)[C@@]3(c4ccc([N+](=O)[O-])cc4)CC(=O)N(C4CCCCC4)[C@@H]3c3ccc(CO)cc32)cc1
4. [N-]=[N+]=NCc1ccccc1C[C@]1(C(=O)NCC(O)CO)N=C(c2ccc(OCCCO)cc2)O[C@H]1c1ccccc1 (some centres not stated)

[0.0444, 0.839, -0.0246, 0.38]
